Reference for the values: patent US20230127046A1

Here, each record is paired with measured IC50 data.
molecular target: recombinant human G9a protein (Homo sapiens, UniProt Q96KQ7); construct: purchased BPS Bioscience Inc. #51001; assay: G9a inhibitory activity test (ALPHA); type: biochemical; conditions: biotinylated histone H3 peptide (1-21), SAM, read-out: Inhibitory activity (G9a IC50 value)
Sequence (Q96KQ7 785-1210 limits assumed): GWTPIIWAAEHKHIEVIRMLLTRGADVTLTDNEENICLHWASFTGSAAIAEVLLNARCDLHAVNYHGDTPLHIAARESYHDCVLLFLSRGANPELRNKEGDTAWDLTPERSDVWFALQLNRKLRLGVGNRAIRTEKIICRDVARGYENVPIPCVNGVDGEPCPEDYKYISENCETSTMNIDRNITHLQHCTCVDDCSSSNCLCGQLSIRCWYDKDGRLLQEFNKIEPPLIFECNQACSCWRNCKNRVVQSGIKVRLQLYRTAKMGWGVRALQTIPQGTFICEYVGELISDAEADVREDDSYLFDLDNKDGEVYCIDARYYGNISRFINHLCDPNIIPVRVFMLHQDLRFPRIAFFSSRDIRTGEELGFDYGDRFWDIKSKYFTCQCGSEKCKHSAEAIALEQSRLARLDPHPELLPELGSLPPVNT

>  <Compound>
CCCCC(NC(=O)c1[nH]c2c(c1C)C(=O)CC(C)(C)C2)C(=O)Nc1ccc(CN2CCCC2)cc1 (stereo not shown) [Example 1-98]

>  <IC50>
< 50 nM

$$$$
>  <Compound>
Cc1c(C(=O)NC(CCC2CC2)C(=O)Nc2ccc(OC3COC3)nc2)[nH]c2c1C(=O)CC(C)(C)C2 (stereo not shown) [Example 1-71]

>  <IC50>
≥ 200 nM

$$$$
>  <Compound>
CCCCC(NC(=O)c1[nH]c2c(c1C)C(=O)CC(C)(C)C2)C(=O)Nc1ccccc1CC (stereo not shown) [Example 1-23]

>  <IC50>
50 to 200 nM

$$$$

For the next question, use this compound.
Form: compound = CCCCC(NC(=O)c1[nH]c2c(c1C)C(=O)CC(C)(C)C2)C(=O)Nc1ccc(OC2CN(C)C2)nc1 (stereo not shown) [Example 1-3] ; IC50 = 50 to 200 nM
